Property: Cytokine, MCP-1; scope: individual substances
Test system: human PBMC
Test: Induction of cytokines and chemokines from human PBMC, comparison with CpG polynucleotides (Milliplex MAP kit)
Type: cell-based
Conditions: human PBMC culture supernatant, 48 h; final concentration 10 μg/mL
Strand notation (5' to 3'): a small letter for the sugar, then the base; units joined by * are phosphorothioate-linked, units joined directly phosphodiester-linked; [ ] holds rarer units or linkages, { } end groups; capitals alone tell only the bases. d = 2'-deoxy (DNA)

| SUBSTANCE | MEASURED ON | Cytokine, MCP-1 |
| --- | --- | --- |
| UUGTUU [SEQ ID NO: 2] | human PBMC | 196 pg/mL |
| 5′-GGGGACGACGTCGTCGGGGGG-3′ (DNA dG*dG*dG*dG*dA*dC*dG*dA*dC*dG*dT*dC*dG*dT*dC*dG*dG*dG*dG*dG*dG) [SEQ ID NO: 33, reference compound] | human PBMC | 573 pg/mL |
| GGGTGGUUU (DNA GGGTGGNNN; Three 3' uracils, sugar and linkages not given here, further chemistry not given here) [SEQ ID NO: 9, 5′-OH, 3′-OH non-DNA base-containing polynucleotide] | human PBMC | 914 pg/mL |
| 5′-TCGTCGTTTTCGGCGGCCGCCG-3′ (DNA dT*dC*dG*dT*dC*dG*dT*dT*dT*dT*dC*dG*dG*dC*dG*dG*dC*dC*dG*dC*dC*dG) [SEQ ID NO: 35, reference compound] | human PBMC | 906 pg/mL |
| NebGGTGNeb (DNA NGGTGN; Nebularine at both ends, sugar and linkages not given here, further chemistry not given here) [SEQ ID NO: 1, 5′-OH, 3′-OH non-DNA base-containing polynucleotide] | human PBMC | 160 pg/mL |

* * *

System: human PBMC
Assay: Induction of cytokines from human PBMC (ELISA cytokine capture assay)
Format: cell-based
Conditions: PBMC of 3 healthy adults, 48 h; increase two-fold that of background control; SEQ ID NOs 1-3 100 μg/mL, CpG 2006 and MCC 1-100 μg/mL, LPS 10 μg/mL

| SUBSTANCE | Number of individuals responding, IL-10 |
| --- | --- |
| IIGTII [SEQ ID NO: 3] | 0/3 |
| UUGTUU [SEQ ID NO: 2] | 0/3 |
| NebGGTGNeb (DNA NGGTGN; Nebularine at both ends, sugar and linkages not given here, further chemistry not given here) [SEQ ID NO: 1, 5′-OH, 3′-OH non-DNA base-containing polynucleotide] | 0/3 |
| 5′-TCGTCGTTTTGTCGTTTTGTCGTT-3′ [SEQ ID NO: 32 CpG 2006, reference compound] | 2/3 |

* * *

System: human PBMC
Assay: Induction of cytokines and chemokines from human PBMC, comparison with CpG polynucleotides (Milliplex MAP kit)
Format: cell-based
Details: in comparison to LPS and MCC; Table 14
Strand notation (5' to 3'): a small letter for the sugar, then the base; units joined by * are phosphorothioate-linked, units joined directly phosphodiester-linked; [ ] holds rarer units or linkages, { } end groups; capitals alone tell only the bases. d = 2'-deoxy (DNA)
REPORTED PROPERTY: Interleukin (cytokine) inducing activity towards human PBMC (in words)

| SUBSTANCE | ENDPOINT RESULT |
| --- | --- |
| UUGTUU [SEQ ID NO: 2] | marginal or no |
| 5′-TCGTCGTTTTGTCGTTTTGTCGTT-3′ [SEQ ID NO: 34, reference compound] | did not induce cytokines |
| 5′-TCGTCGTTTTCGGCGGCCGCCG-3′ (DNA dT*dC*dG*dT*dC*dG*dT*dT*dT*dT*dC*dG*dG*dC*dG*dG*dC*dC*dG*dC*dC*dG) [SEQ ID NO: 35, reference compound] | did not induce cytokines |
| NebGGTGNeb (DNA NGGTGN; Nebularine at both ends, sugar and linkages not given here, further chemistry not given here) [SEQ ID NO: 1, 5′-OH, 3′-OH non-DNA base-containing polynucleotide] | marginal or no |
| 5′-GGGGACGACGTCGTCGGGGGG-3′ (DNA dG*dG*dG*dG*dA*dC*dG*dA*dC*dG*dT*dC*dG*dT*dC*dG*dG*dG*dG*dG*dG) [SEQ ID NO: 33, reference compound] | did not induce cytokines |
| IIGTII [SEQ ID NO: 3] | marginal or no |
| GGGTGGIII (DNA GGGTGGNNN; Three 3' inosines, sugar and linkages not given here, further chemistry not given here) [SEQ ID NO: 7, 5′-OH, 3′-OH non-DNA base-containing polynucleotide] | marginal or no |

* * *

System: human PBMC
Assay: Induction of cytokines and chemokines from human PBMC, comparison with CpG polynucleotides (Milliplex MAP kit)
Format: cell-based
Conditions: human PBMC culture supernatant, 48 h; final concentration 10 μg/mL
Experimental: LPS and MCC were included as positive controls as described in Example 7. […] The cells were then cultivated for 48 h. Cytokines (interleukins IL-6 and IL-10, chemokines MCP-1 and RANTES) in the culture supernatant were measured using a Milliplex™ MAP kit (Millipore Corporation, Billerica, Mass., USA) on a Bio-Plex 200 system (Bio-Rad Laboratories, Hercules, Calif., USA). […]
Strand notation (5' to 3'): a small letter for the sugar, then the base; units joined by * are phosphorothioate-linked, units joined directly phosphodiester-linked; [ ] holds rarer units or linkages, { } end groups; capitals alone tell only the bases. d = 2'-deoxy (DNA)
Please note: fulfilled applies when Cytokine, RANTES (CCL5) is 200 pg/mL or greater, and not fulfilled applies otherwise.

| SUBSTANCE | ASSIGNED CLASS |
| --- | --- |
| UUGTUU [SEQ ID NO: 2] | not fulfilled |
| GGGTGGUUU (DNA GGGTGGNNN; Three 3' uracils, sugar and linkages not given here, further chemistry not given here) [SEQ ID NO: 9, 5′-OH, 3′-OH non-DNA base-containing polynucleotide] | not fulfilled |
| 5′-TGCTGCTTTTTGCTGGCTTTTT-3′ (DNA dT*dG*dC*dT*dG*dC*dT*dT*dT*dT*dT*dG*dC*dT*dG*dG*dC*dT*dT*dT*dT*dT) [SEQ ID NO: 31, reference compound] | fulfilled |
| 5′-TCGTCGTTTTGTCGTTTTGTCGTT-3′ [SEQ ID NO: 34, reference compound] | not fulfilled |

* * *

Property: Cytokine, MCP-1; scope: individual substances
Tested on: human PBMC
Assay: Induction of cytokines and chemokines from human PBMC, comparison with CpG polynucleotides (Milliplex MAP kit)
Assay type: cell-based
Conditions: human PBMC culture supernatant, 48 h; final concentration 10 μg/mL
Strand notation (5' to 3'): a small letter for the sugar, then the base; units joined by * are phosphorothioate-linked, units joined directly phosphodiester-linked; [ ] holds rarer units or linkages, { } end groups; capitals alone tell only the bases. d = 2'-deoxy (DNA)
REPORTED PROPERTY: Cytokine, MCP-1 (pg/mL)

| SUBSTANCE | REPORTED PROPERTY | ENDPOINT RESULT |
| --- | --- | --- |
| GGGTGGIII (DNA GGGTGGNNN; Three 3' inosines, sugar and linkages not given here, further chemistry not given here) [SEQ ID NO: 7, 5′-OH, 3′-OH non-DNA base-containing polynucleotide] | Cytokine, MCP-1 | 79 |
| GGGTGGNebNebNeb (DNA GGGTGGNNN; Three 3' nebularines, sugar and linkages not given here, further chemistry not given here) [SEQ ID NO: 5, 5′-OH, 3′-OH non-DNA base-containing polynucleotide] | Cytokine, MCP-1 | 3600 |
| 5′-TGCTGCTTTTTGCTGGCTTTTT-3′ (DNA dT*dG*dC*dT*dG*dC*dT*dT*dT*dT*dT*dG*dC*dT*dG*dG*dC*dT*dT*dT*dT*dT) [SEQ ID NO: 31, reference compound] | Cytokine, MCP-1 | 343 |
| 5′-TCGTCGTTTTGTCGTTTTGTCGTT-3′ [SEQ ID NO: 34, reference compound] | Cytokine, MCP-1 | 1270 |
| IIGTII [SEQ ID NO: 3] | Cytokine, MCP-1 | 57 |

* * *

Test system: human PBMC
Test: Induction of cytokines and chemokines from human PBMC, comparison with CpG polynucleotides (Milliplex MAP kit)
Format: cell-based
Conditions: human PBMC culture supernatant, 48 h; final concentration 10 μg/mL
Strand notation (5' to 3'): a small letter for the sugar, then the base; units joined by * are phosphorothioate-linked, units joined directly phosphodiester-linked; [ ] holds rarer units or linkages, { } end groups; capitals alone tell only the bases. d = 2'-deoxy (DNA)

| SUBSTANCE | ENDPOINT UNIT | Cytokine, RANTES (CCL5) |
| --- | --- | --- |
| GGGTGGIII (DNA GGGTGGNNN; Three 3' inosines, sugar and linkages not given here, further chemistry not given here) [SEQ ID NO: 7, 5′-OH, 3′-OH non-DNA base-containing polynucleotide] | pg/mL | 71 |
| NebGGTGNeb (DNA NGGTGN; Nebularine at both ends, sugar and linkages not given here, further chemistry not given here) [SEQ ID NO: 1, 5′-OH, 3′-OH non-DNA base-containing polynucleotide] | pg/mL | 93 |
| 5′-TCGTCGTTTTCGGCGGCCGCCG-3′ (DNA dT*dC*dG*dT*dC*dG*dT*dT*dT*dT*dC*dG*dG*dC*dG*dG*dC*dC*dG*dC*dC*dG) [SEQ ID NO: 35, reference compound] | pg/mL | 136 |
| 5′-GGGGACGACGTCGTCGGGGGG-3′ (DNA dG*dG*dG*dG*dA*dC*dG*dA*dC*dG*dT*dC*dG*dT*dC*dG*dG*dG*dG*dG*dG) [SEQ ID NO: 33, reference compound] | pg/mL | 105 |
| IIGTII [SEQ ID NO: 3] | pg/mL | 72 |
